Data provenance is the NIST ThermoML archive (doi:10.1021/je060184i).

conditions: 283.15 K; Liquid; Closed cell (Static) method
Parameter Measured: vapor or sublimation pressure (kPa)

1 = CCCOC(C)=O [propyl ethanoate]
2 = C=CCCCC
3 = CCCCCCC
4 = C1CCCCC1
Input: Sort the items above by vapor or sublimation pressure, starting with the smallest value. List the labels, following the order given in the request.
Output: 1, 3, 4, 2

----------
conditions: 323.15 K; Liquid; Closed cell (Static) method
Parameter Measured: vapor or sublimation pressure (kPa)

Recorded results for 2 compounds are shown here.
>  <Compound>
CCCOC(C)=O [propyl ethanoate]

>  <Unit Name>
kPa

>  <vapor or sublimation pressure>
15.25

$$$$
>  <Compound>
C=CCCCC

>  <Unit Name>
kPa

>  <vapor or sublimation pressure>
64.6

$$$$

1 = C1CCCCC1
2 = CCCCCCC
Input: Looking only at measured vapor or sublimation pressure, which entry is lower, 1 or 2 ? Your choice should be expressed through its label.
Output: 2
(2: 18.85 kPa, 1: 36.24 kPa)

----------
conditions: 273.15 K; Liquid; Closed cell (Static) method
Parameter Measured: vapor or sublimation pressure (kPa)

I = CCCOC(C)=O [propyl ethanoate]
II = CCCCCCC [heptane]
III = C=CCCCC [hex-1-ene]
IV = C1CCCCC1 [cyclohexane]
Input: Order the 4 listed items from lowest to highest according to vapor or sublimation pressure. I'd appreciate it if you listed the labels in the requested order.
Output: I, II, IV, III
(I: 1.006 kPa, II: 1.531 kPa, IV: 3.73 kPa, III: 7.687 kPa)

----------
settings: 333.15 K; Liquid; Closed cell (Static) method
Parameter Measured: vapor or sublimation pressure (kPa)

>  <Compound>
CCCOC(C)=O [propyl ethanoate]

>  <Unit Name>
kPa

>  <vapor or sublimation pressure>
23.33

$$$$

a = C1CCCCC1
b = C=CCCCC
c = CCCCCCC
Input: Output the entries ranked by vapor or sublimation pressure from maximum down to minimum. Reply format: the labels, ordered as requested.
Output: b, a, c

----------
conditions: 353.15 K; Liquid; Closed cell (Static) method
Parameter Measured: vapor or sublimation pressure (kPa)

a = C1CCCCC1 [cyclohexane]
b = C=CCCCC [hex-1-ene]
Input: Would you kindly point out which of a and b has the smaller vapor or sublimation pressure figure? Response format: the label of the selected entry.
Output: a
(a: 98.85 kPa, b: 165.99 kPa)
